Target system: T1, hHER3 ECD (human HER3 extracellular domain) (human, UniProt P21860 20-643)
T1 construct: also called recombinant HER3-ECD
Method summary: SPR off rate on HER3-ECD
Measured quantity: koff (s⁻¹)
Dear colleague, please return just the value in s⁻¹, with no unit written.

The cases that follow already have their koff on record.
Binder	koff, s⁻¹
HER3MS00128 (VHH) VHH: DVQLVESGGGLVQPGGSLRLSCAASGSIFRINAMAWYRQAPGKQRELVAEITAGGSTNYADSVKGRFTISRDNSWNTLYLQMNSLRAEDTAVYYCNLDHYTTWDRRSAYWGQGTLVTVSS	0.00046
HER3MS00124 (VHH) VHH: EVQLVESGGGLVQPGGSLRLSCAASGSIFRINAMAWYRQAPGKQRELVAEITAGGSTNYADSVKGRFTISRDNSWNTLYLQMNSLRAEDTAVYYCNLDHYTTWDRRSAYWGQGTLVTVSS	0.00045
HER3MS00127 (VHH) VHH: DVQLVESGGGLVQPGGSLRLSCAASGSIFRINAMAWYRQAPGKQRELVAEITAGGSTNYADSVKGRFTISRDNSWNTLYLQMNSLRPEDTAVYYCNLDHYTTWDRRSAYWGQGTLVTVSS	0.00046

Okay, now this binder:
Request: Fill in the blank: the reported koff of HER3MS00123 (VHH) VHH: EVQLVESGGGLVQPGGSLRLSCAASGSIFRINAMAWYRQAPGKQRELVAEITAGGSTNYADSVKGRFTISRDNSWNTLYLQMNSLRPEDTAVYYCNLDHYTTWDRRSAYWGQGTLVTVSS is ____.
Response: 0.00046
